tested on: Zea mays; assay: Crop compatibility pre-emergence (greenhouse pot trial); type: in vivo; details: application rate 20 g/ha, effect vs untreated controls
I'd appreciate it if you could supply Zea mays (Efficacy in %) values for the items below.
Numbers only, in %.

COMPOUND | UOM | RECORDED_RESULT
CSCCNC(=O)C(C)Sc1cc(-n2c(=O)cc(C(F)(F)F)n(C)c2=O)c(F)cc1Cl (stereo not shown) [I.1-181] | % | 0
CC(Sc1cc(-n2c(=O)cc(C(F)(F)F)n(C)c2=O)c(F)cc1Cl)C(=O)NCC1(C)CCCO1 (stereo not shown) [I.1-224] | % | 0
COCCOC(=O)C(C)Sc1cc(-n2c(=O)cc(C(F)(F)F)n(C)c2=O)c(F)cc1Cl (stereo not shown) [I.1-1] | % | 20

The record that follows has no Zea mays (Efficacy in %) shown yet.
Consider CC(Sc1cc(-n2c(=O)cc(C(F)(F)F)n(C)c2=O)c(F)cc1Cl)C(=O)NCC1CCCO1 (stereo not shown) [I.1-221] . Its measured Zea mays (Efficacy in %) is 0

---

system: Zea mays; test: Crop compatibility post-emergence (greenhouse pot trial); format: in vivo; conditions: application rate 20 g/ha
Provide the recorded Zea mays (Efficacy in %) for the entries that follow.
Numbers only, in %.

COMPOUND | UOM | RECORDED_RESULT
CON(C(=O)C(C)Sc1cc(-n2c(=O)cc(C(F)(F)F)n(C)c2=O)c(F)cc1Cl)C1CCOC1 (stereo not drawn) [I.1-341] | % | 10
CC(Sc1cc(-n2c(=O)cc(C(F)(F)F)n(C)c2=O)c(F)cc1Cl)C(=O)OC1CCCOC1 (stereo not drawn) [I.1-126] | % | 20

Now let's try a different one.
Recorded Zea mays (Efficacy in %) for Cc1c(C(F)(F)F)n(C)c(=O)n(-c2cc(SC(CC(C)C)C(=O)OCC3CCCCO3)c(Cl)cc2F)c1=O (stereo not drawn) [I.14-91] on Zea mays was 20

---

tested on: Echinochloa crus-galli; assay: Herbicidal action post-emergence (greenhouse pot trial); type: in vivo; conditions: application rate 20 g/ha, scored visually after about 3 weeks vs untreated controls
REPORTED_METRIC: Echinochloa crus-galli (Efficacy in %)
One number for each entry, in %.

Worked cases, answers included:
COMPOUND | RECORDED_RESULT
CC(Sc1cc(-n2c(=O)cc(C(F)(F)F)n(C)c2=O)c(F)cc1Cl)C(=O)OC1CCOC1 (stereo not drawn) | 100
CCC(Sc1cc(-n2c(=O)cc(C(F)(F)F)n(C)c2=O)c(F)cc1Cl)C(=O)OCC1CCCO1 (stereo not drawn) | 80
CC(Sc1cc(-n2c(=O)cc(C(F)(F)F)n(C)c2=O)c(F)cc1Cl)C(=O)OC1CCSC1 (stereo not drawn) | 100

Please look at the items below and tell me Echinochloa crus-galli (Efficacy in %) for each one, in order.
1. CSCCNC(=O)C(C)Sc1cc(-n2c(=O)cc(C(F)(F)F)n(C)c2=O)c(F)cc1Cl (stereo not drawn)
2. CCC(Sc1cc(-n2c(=O)c(C)c(C(F)(F)F)n(C)c2=O)c(F)cc1Cl)C(=O)OCC1CCOC1 (stereo not drawn)
3. COC(C)COC(=O)C(C)Sc1cc(-n2c(=O)cc(C(F)(F)F)n(C)c2=O)c(F)cc1Cl (stereo not drawn)

1. 100
2. 100
3. 100

These entries and their values trace back to patent US11497212B2.
